protocol: Cytotoxicity against rat L6 cells after 72 hrs by alamar blue staining based fluorescence assay
Assay type: cell-based
quantity_name: CC50 at 72 h
Please provide the amount together with its unit, number first.

See these solved cases before continuing.
compound	CC50 at 72 h
Cc1ccc(C(c2ccn(-c3ccc(F)cc3)c2)n2ccnc2)cc1 (stereo not given)	60.6 µM
Cc1ccc(C(c2ccn(-c3ccc(Cl)cc3)c2)n2ccnc2)cc1 (stereo not given)	42.6 µM
FC(F)(F)c1ccc(-c2c[nH]cc2C(c2ccc(Cl)cc2Cl)n2ccnc2)cc1 (stereo not given)	9.4 µM
Clc1ccc(C(c2c[nH]cc2-c2ccc(Cl)c(Cl)c2)n2ccnc2)c(Cl)c1 (stereo not given)	3.64 µM

Now, please, on to the next compound.
Request: Query CC50 at 72 h for c1ccc(C(c2ccn(-c3ccccc3)c2)n2ccnc2)cc1 (stereo not given)
Response: 80.8 µM

---

protocol: Selectivity index, ratio of CC50 for rat L6 cells to IC50 for erythrocytic stage of chloroquine and pyrimethamine resistant Plasmodium falciparum K1
Format: toxicity
condition_notes: read-out: Ratio CC50/IC50
Listing of entries alongside the reported selectivity ratio.
// keep it numeric: no unit symbol after the value

compound	measurement
Cc1ccc(C(c2ccn(-c3ccc(Cl)cc3)c2)n2ccnc2)cc1 (centres undefined)	17

Request: Query selectivity ratio for CC(C)(C)c1ccc(-c2c[nH]cc2C(c2ccc(Cl)cc2Cl)n2ccnc2)cc1 (centres undefined)
Response: 60

Request: Query selectivity ratio for Clc1ccc(-c2c[nH]cc2C(c2ccc(Cl)cc2Cl)n2ccnc2)c(Cl)c1 (centres undefined)
Response: 55

Request: Query selectivity ratio for O=[N+]([O-])c1ccc(-c2c[nH]cc2C(c2ccc(Cl)cc2Cl)n2ccnc2)cc1 (centres undefined)
Response: 35

---

protocol: Selectivity index, ratio of CC50 for rat L6 cells to IC50 for erythrocytic stage of chloroquine and pyrimethamine resistant Plasmodium falciparum K1
Type: toxicity
condition_notes: read-out: Ratio CC50/IC50
Would you mind labelling by selectivity ratio? At or over 30 is t, under is f.

Request: Hi team, for Fc1ccc(-n2ccc(C(c3ccccc3)n3ccnc3)c2)cc1 (stereo not given) , is the recorded selectivity ratio at or above 30?
Response: f

Request: Hi team, for Clc1ccc(-c2c[nH]cc2C(c2ccc(Cl)cc2Cl)n2ccnc2)cc1 (stereo not given) , is the recorded selectivity ratio at or above 30?
Response: t

Request: Hi team, for Cn1cc(-c2ccc(Cl)cc2)c(C(c2ccc(Cl)cc2Cl)n2ccnc2)c1 (stereo not given) , is the recorded selectivity ratio at or above 30?
Response: t

Request: Hi team, for Fc1ccc(-n2ccc(C(c3ccc(Cl)cc3)n3ccnc3)c2)cc1 (stereo not given) , is the recorded selectivity ratio at or above 30?
Response: f

Request: Hi team, for c1ccc(C(c2ccn(-c3ccccc3)c2)n2ccnc2)cc1 (stereo not given) , is the recorded selectivity ratio at or above 30?
Response: f

Request: Hi team, for Fc1ccc(C(c2ccn(-c3ccc(F)cc3)c2)n2ccnc2)cc1 (stereo not given) , is the recorded selectivity ratio at or above 30?
Response: f

Request: Hi team, for Clc1ccc(C(c2c[nH]cc2-c2ccc(Cl)c(Cl)c2)n2ccnc2)c(Cl)c1 (stereo not given) , is the recorded selectivity ratio at or above 30?
Response: f

Request: Hi team, for N#Cc1ccc(-c2c[nH]cc2C(c2ccc(Cl)cc2Cl)n2ccnc2)cc1 (stereo not given) , is the recorded selectivity ratio at or above 30?
Response: f

Request: Hi team, for Clc1ccc(C(c2c[nH]cc2-c2ccc(-c3ccncc3)cc2)n2ccnc2)c(Cl)c1 (stereo not given) , is the recorded selectivity ratio at or above 30?
Response: t
